# Tested on: Bel-7402
# Assay text: Cytotoxicity against human Bel7402 cells after 72 hrs by SRB assay
# Type: functional, cell-based
# Condition details: Bel-7402, 72 h
pIC50: −log10 of the molar value.
Measurement kind: pIC50

In [3]: df
Out[3]:
                               sample_smiles  measurement_kind  experimental_result
 0         Cc1ncc(-c2ccccc2F)c(-c2ccccc2O)n1             pIC50               < 5.00
 1         Nc1ncc(-c2ccccc2F)c(-c2ccccc2O)n1             pIC50               < 5.00
 2  Cc1ncc(-c2cccc(C(F)(F)F)c2)c(-c2ccccc2O)n1             pIC50               < 5.00
 3  CNC(=O)c1ncc(-c2ccc(OC)cc2)c(-c2ccccc2O)n1             pIC50               < 5.00
 4       Nc1ncc(-c2ccc(O)cc2)c(-c2ccccc2O)n1             pIC50               < 5.00
 5  Nc1ncc(-c2ccc(OC(F)(F)F)cc2)c(-c2ccccc2O)n1             pIC50               < 5.00
 6  Nc1ncc(-c2cccc(C(F)(F)F)c2)c(-c2ccccc2O)n1             pIC50               < 5.00
 7      Cc1ncc(-c2ccc(Cl)cc2)c(-c2ccccc2O)n1             pIC50               < 5.00
 8       Cc1ncc(-c2ccc(N)cc2)c(-c2ccccc2O)n1             pIC50               < 5.00
 9  Nc1ncc(-c2ccc(OCCCOCc3ccccc3)cc2)c(-c2ccccc2O)n1             pIC50               < 5.00
10  COc1cccc2c1C(=O)c1c(O)c3c(c(O)c1C2=O)C[C@@](O)(C(=O)CO)C[C@@H]3O[C@H]1C[C@H](N)[C@H](O)[C@H](C)O1             pIC50                 7.68
11  Nc1ncc(-c2ccc(OCCN3CCCC3)cc2)c(-c2ccccc2O)n1             pIC50               < 5.00
12  COc1cc(-c2cnc(N)nc2-c2ccccc2O)cc(OC)c1OC             pIC50               < 5.00
13  Cc1ncc(-c2ccc(OC(F)(F)F)cc2)c(-c2ccccc2O)n1             pIC50               < 5.00
14  COc1cc(-c2cnc(C)nc2-c2ccccc2O)cc(OC)c1OC             pIC50               < 5.00
15  COC(=O)c1ncc(-c2ccc(OC)cc2)c(-c2ccccc2O)n1             pIC50               < 5.00
16  Cc1ncc(-c2ccc(NC(=O)OC(C)(C)C)cc2)c(-c2ccccc2O)n1             pIC50               < 5.00

Just for reference, ChEMBL document CHEMBL1139298 is where these values come from.
